study_system: T1, human DLL3 on SHP-77 cells (human, UniProt Q9NYJ7 27-618)
T1 construct: also called DLL3-expressing cells (SHP-77)
T1 sequence: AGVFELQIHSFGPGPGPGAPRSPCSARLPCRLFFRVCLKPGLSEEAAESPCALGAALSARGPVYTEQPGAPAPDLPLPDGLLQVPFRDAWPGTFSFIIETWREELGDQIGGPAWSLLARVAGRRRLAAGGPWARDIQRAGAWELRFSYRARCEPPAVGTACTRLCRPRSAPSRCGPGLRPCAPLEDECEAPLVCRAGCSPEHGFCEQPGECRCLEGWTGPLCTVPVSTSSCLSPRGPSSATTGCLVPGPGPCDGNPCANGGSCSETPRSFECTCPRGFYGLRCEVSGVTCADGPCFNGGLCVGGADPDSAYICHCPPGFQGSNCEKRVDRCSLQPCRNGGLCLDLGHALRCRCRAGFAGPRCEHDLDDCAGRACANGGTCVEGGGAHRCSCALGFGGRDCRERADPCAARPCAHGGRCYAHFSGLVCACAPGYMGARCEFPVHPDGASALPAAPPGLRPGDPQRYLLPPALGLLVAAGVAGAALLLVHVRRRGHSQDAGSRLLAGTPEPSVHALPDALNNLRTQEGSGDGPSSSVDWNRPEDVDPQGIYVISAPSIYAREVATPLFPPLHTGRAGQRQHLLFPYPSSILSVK
protocol_notes: flow cytometry, SHP-77 cells
Overview of reported pEC50 across a group of binders:
The quantity pEC50 is defined as the negative base-10 logarithm of the molar concentration.

Example entries begin here.
>>> recorded_number("DLL3-3 camelid-derived anti-DLL3 chimeric antibody (antibody, human IgG1, V domains shown) VH: DVQLVESGGGSVQAGGSLKLSCKSPTYTISSGYMGWFRQAPGKEREGVAAIYIGGSTTLYADSVKGRFTISADNAEKTVYLQMNTLKPEDSAMYYCAAQLRPNSAYHPLDGRKYNYWGQGTQVTVSS")
10.21
>>> recorded_number("hDLL3-12-1 camelid-derived humanized anti-DLL3 antibody (antibody, V domains shown) VH: QVQLVESGGGVVQPGRSLRLSCAASGFAFSSYDMHWVRQAPGKGLEWVSSISRDGRGPRYADSVKGRFTISRDNSKNTLYLQMNSLRAEDTAVYYCSKGYPIMGGTTQGTLVTVSS")
10.28

// query # input binder: hDLL3-26 camelid-derived humanized anti-DLL3 antibody (antibody, V domains shown) VH: EVQLVESGGGLVQPGGSLRLSCAASGDIYSSSYVGWFRQAPGKEREGVAIIYTSGDSTYYADSVKGRFTISRDNSKNTLYLQMNSLRAEDTAVYYCAARFAIDNSNYWGQGTLVTVSS ; wanted: its pEC50
// result 9.10

// query # input binder: hDLL3-122 camelid-derived humanized anti-DLL3 antibody (antibody, V domains shown) VH: EVQLVESGGGLVQPGGSLRLSCAASGDTYRSYCMGWFRQAPGKEREGVADIVSDGSTSYADSVKGRFTISRDNSKNTLYLQMNSLRAEDTAVYYCAVDRGGSGGYCYTGRYDYWGQGTLVTVSS ; wanted: its pEC50
// result 9.23
